# TGT: T1, mouse GPVI on the cell surface of mouse platelets (mouse, UniProt P0C191 22-313)
# T1 construct: whole, on cells; also called GPVI on murine platelets
# T1 sequence (looked up): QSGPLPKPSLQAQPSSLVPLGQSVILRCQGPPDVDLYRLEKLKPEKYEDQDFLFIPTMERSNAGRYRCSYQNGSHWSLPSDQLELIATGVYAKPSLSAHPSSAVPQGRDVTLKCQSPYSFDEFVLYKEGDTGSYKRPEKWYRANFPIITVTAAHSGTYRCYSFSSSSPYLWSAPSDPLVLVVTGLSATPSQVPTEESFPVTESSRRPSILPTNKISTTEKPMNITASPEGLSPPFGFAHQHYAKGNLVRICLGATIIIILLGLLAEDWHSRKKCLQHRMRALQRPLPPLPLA
# PROTOCOL NOTES: FACS on washed murine platelets from PRP (one exemplary donor), PE-conjugated detection antibody, median fluorescence
RECORDED ENDPOINT: EC50 (read off the curve)

Illustrative cases are given below, each with its answer.
>  <BINDER>
Fab #3 comprising a modified heavy chain constant region (Fab, V domains shown, Human Fab from the Ylanthia library; produced in HKB11 cells; also called Fab #3 mod; HC) VH: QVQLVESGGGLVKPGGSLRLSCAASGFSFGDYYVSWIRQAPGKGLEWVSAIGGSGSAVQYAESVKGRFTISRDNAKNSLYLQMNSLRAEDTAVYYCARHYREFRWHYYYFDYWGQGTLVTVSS VL: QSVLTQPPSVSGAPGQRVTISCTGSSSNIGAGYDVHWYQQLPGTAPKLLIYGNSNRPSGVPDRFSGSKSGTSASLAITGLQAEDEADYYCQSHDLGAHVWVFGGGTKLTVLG

>  <EC50 (read off the curve)>
~0.3 µg/mL

$$$$
>  <BINDER>
Fab #1 comprising a modified heavy chain constant region (Fab, V domains shown, Human Fab from the Ylanthia library; produced in HKB11 cells; also called Fab #1 mod; HC) VH: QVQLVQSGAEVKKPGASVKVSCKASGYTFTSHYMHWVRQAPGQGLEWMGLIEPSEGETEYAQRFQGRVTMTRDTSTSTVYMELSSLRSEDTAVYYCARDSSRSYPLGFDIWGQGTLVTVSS VL: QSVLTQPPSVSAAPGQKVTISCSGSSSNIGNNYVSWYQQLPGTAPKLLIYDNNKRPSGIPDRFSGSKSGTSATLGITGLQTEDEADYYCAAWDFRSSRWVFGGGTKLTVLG

>  <EC50 (read off the curve)>
~3 µg/mL

$$$$
>  <BINDER>
Fab #2 comprising a modified heavy chain constant region (Fab, V domains shown, Human Fab from the Ylanthia library; produced in HKB11 cells; also called Fab #2 mod; HC) VH: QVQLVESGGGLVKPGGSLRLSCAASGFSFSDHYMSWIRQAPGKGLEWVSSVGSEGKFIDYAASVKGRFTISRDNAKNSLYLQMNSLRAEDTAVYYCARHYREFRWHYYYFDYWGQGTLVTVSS VL: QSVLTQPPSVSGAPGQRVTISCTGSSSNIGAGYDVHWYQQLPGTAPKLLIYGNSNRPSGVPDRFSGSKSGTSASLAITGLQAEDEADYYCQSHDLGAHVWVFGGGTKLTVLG

>  <EC50 (read off the curve)>
~0.5 µg/mL

$$$$

Alright, here's another binder for you.
QUERY: Can you share its EC50 (read off the curve)? I mean this binder: Fab #4 comprising a modified heavy chain constant region (Fab, V domains shown, Human Fab from the Ylanthia library; produced in HKB11 cells; also called Fab #4 mod; HC) VH: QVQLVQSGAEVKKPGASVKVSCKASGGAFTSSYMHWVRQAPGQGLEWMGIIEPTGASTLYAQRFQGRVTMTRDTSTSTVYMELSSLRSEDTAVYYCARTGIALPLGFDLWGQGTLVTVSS VL: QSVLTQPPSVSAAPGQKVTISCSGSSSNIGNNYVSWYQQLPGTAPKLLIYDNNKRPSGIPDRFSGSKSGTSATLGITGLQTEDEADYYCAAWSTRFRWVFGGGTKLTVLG
RESULT: ~0.2 µg/mL
